Numbers sourced from patent US20240254119A1.

IC50 listing for selected molecules.
Target: PDGFRα (Homo sapiens)
Construct: purchased Millipore 14-467 (lot 26321_ACTI)
Protocol Details: Caliper biochemical assay, PDGFRα
Reported Conditions: Table 6
Description: Enzyme, substrate, and cofactors (ATP and Mn^2+) are combined in a well of a microtiter plate and incubated for 3 hours at 25° C. At the end of the incubation, the reaction is quenched by the addition of an EDTA-containing buffer. Substrate and product are separated electrophoretically using the microfluidic-based LabChip 3000 Drug Discovery System from Caliper Life Sciences* and quantitated by fluorescence intensity. […] • 1. […] Read plate LabChip 3000 Drug Discovery System […]

Challenge: Quick check: IC50 of `Cc1ccc(-c2noc([C@H]3C[C@@H]3F)n2)cc1NC(=O)c1cnc2cc(Nc3ccc4c(c3)OCCO4)ccn12` ?
Response given: ≤ 50 nM

Challenge: Quick check: IC50 of `COC(=O)N1CC(c2nc(-c3ccc(C)c(NC(=O)c4cnc5cc(COCC(F)(F)F)ccn45)c3)no2)C1` ?
Response given: 5000 to 30000 nM

Challenge: Quick check: IC50 of `COCc1ccn2c(C(=O)Nc3cc(-c4noc(C)n4)ccc3C)cnc2c1` ?
Response given: 500 to 5000 nM

* * *

Target: PDGFRα (Homo sapiens, UniProt P16234)
Construct: purchased Millipore 14-467 (lot 26321_ACTI)
Sequence (P16234 24-1089): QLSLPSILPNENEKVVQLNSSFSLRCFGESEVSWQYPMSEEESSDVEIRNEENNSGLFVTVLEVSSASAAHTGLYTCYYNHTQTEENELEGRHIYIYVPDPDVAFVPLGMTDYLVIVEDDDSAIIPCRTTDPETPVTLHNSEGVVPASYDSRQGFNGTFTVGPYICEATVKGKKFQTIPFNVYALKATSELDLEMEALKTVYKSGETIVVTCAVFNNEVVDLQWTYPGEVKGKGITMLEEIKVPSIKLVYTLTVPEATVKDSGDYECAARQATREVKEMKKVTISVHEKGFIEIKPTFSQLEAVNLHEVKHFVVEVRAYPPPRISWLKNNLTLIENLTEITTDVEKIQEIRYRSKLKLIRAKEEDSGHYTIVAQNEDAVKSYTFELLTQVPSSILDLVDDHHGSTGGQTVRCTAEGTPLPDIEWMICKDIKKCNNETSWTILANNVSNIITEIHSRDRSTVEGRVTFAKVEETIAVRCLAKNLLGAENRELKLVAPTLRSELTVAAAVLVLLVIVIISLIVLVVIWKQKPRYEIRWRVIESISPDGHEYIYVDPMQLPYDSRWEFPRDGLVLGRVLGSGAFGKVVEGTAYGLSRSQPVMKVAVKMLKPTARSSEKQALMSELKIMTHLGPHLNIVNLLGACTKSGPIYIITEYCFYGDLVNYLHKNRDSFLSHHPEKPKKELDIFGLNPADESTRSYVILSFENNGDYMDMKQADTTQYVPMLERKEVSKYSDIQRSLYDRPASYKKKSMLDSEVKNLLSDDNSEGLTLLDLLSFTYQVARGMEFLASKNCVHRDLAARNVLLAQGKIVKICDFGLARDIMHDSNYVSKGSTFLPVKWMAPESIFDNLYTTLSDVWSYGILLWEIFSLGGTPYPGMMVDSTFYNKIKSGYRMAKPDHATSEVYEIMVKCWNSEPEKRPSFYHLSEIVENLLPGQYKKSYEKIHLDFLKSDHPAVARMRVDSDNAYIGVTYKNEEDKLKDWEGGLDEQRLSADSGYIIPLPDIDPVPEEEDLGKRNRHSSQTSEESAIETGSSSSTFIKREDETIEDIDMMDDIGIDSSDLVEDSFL
Protocol Details: HTRF biochemical assay, PDGFRα
Reported Conditions: Table 4, read-out: PDFGRα Biochemical IC50 avg
Metric Name: IC50

{"Molecule": "Cc1ccc(-c2noc(C3CC(O)C3)n2)cc1NC(=O)c1cnn2cc(-c3ccn(C)n3)ccc12 (stereo not drawn)", "Target": "PDGFRα (Homo sapiens, UniProt P16234)", "IC50": "50 to 500 nM"}

Challenge: Quick check: IC50 of Cc1ccc(-c2noc(C3CC3F)n2)cc1NC(=O)c1cnc2cc(COC3CC(O)C3)ccn12 (stereo not drawn) [Compound I-85] ?
Response given: 500 to 5000 nM

Challenge: Quick check: IC50 of `Cc1ccc(-c2noc([C@H]3CC(F)(F)CN3)n2)cc1NC(=O)c1cnn2ccccc12` ?
Response given: 50 to 500 nM

* * *

Target: CSF-1R (Homo sapiens, UniProt P07333)
Construct: purchased Invitrogen PV3249 (lot 662393N)
Sequence (P07333 20-972): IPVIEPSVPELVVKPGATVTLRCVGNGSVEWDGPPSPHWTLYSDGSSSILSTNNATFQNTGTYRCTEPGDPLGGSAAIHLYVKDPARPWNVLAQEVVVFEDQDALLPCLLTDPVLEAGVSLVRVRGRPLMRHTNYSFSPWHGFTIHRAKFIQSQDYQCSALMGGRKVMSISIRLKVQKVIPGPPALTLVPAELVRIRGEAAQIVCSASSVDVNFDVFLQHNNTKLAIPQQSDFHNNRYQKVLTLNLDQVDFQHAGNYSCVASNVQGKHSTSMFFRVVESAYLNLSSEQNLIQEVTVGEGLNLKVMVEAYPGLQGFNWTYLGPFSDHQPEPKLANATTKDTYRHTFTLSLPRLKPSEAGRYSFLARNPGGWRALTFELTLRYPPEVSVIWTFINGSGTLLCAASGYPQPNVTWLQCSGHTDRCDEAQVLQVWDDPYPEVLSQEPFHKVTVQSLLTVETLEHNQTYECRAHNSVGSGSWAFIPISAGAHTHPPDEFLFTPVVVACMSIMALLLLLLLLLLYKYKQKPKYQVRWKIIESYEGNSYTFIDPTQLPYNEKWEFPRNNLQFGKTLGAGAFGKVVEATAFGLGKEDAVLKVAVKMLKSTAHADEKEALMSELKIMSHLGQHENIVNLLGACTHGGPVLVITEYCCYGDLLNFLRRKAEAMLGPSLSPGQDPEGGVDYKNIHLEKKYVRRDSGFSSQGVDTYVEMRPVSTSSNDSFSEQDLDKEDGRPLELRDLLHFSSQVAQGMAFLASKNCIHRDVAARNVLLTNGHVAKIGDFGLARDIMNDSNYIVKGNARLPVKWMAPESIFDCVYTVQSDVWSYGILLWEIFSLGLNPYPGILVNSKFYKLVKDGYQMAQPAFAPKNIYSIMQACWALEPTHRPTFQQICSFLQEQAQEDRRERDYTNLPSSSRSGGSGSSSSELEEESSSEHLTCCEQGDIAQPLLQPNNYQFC
Protocol Details: HTRF biochemical assay, CSF-1R
Reported Conditions: Table 4
pIC50: −log10 of the molar value.
pIC50 listing for selected molecules.

For orientation, consider the following solved cases.
{"Molecule": "Cc1ccc(-c2noc(C3CC(O)C3)n2)cc1NC(=O)c1cnn2cc(-c3ccn(C)n3)ccc12 (stereo not shown)", "pIC50": "≥ 7.30"}
{"Molecule": "Cc1ccc(-c2noc(CC(O)C(F)F)n2)cc1NC(=O)c1cnc2ccccn12 (stereo not shown) [Compound I-114]", "pIC50": "6.30 to 7.30"}

Challenge: Quick check: pIC50 of `Cc1nc(-c2ccc(C)c(NC(=O)c3cnc4cc(COCCO)ccn34)c2)no1` ?
Response given: 5.30 to 6.30

Challenge: Quick check: pIC50 of `Cc1ccc(-c2noc([C@H]3C[C@@H]3F)n2)cc1NC(=O)c1cnn2ccccc12` ?
Response given: 6.30 to 7.30

Challenge: Quick check: pIC50 of `COCc1ccn2c(C(=O)Nc3cc(-c4noc(C)n4)ccc3C)cnc2c1` ?
Response given: 4.52 to 5.30

Challenge: Quick check: pIC50 of `COc1ccn2c(C(=O)Nc3cc(-c4noc(C[C@@H](C)O)n4)ccc3C)cnc2c1` ?
Response given: 6.30 to 7.30

Challenge: Quick check: pIC50 of `Cc1ccc(-c2noc([C@@H]3CCCO3)n2)cc1NC(=O)c1cnc2ccccn12` ?
Response given: 6.30 to 7.30

Challenge: Quick check: pIC50 of `Cc1ccc(-c2noc([C@H]3C[C@@H]3F)n2)cc1NC(=O)c1cnc2ccc(F)cn12` ?
Response given: 6.30 to 7.30

* * *

Target: BCRP (BCRP-MDCKII monolayer) (Homo sapiens)
Construct: host or cells: MDCKII (canine kidney) cells
Sequence (Q9UNQ0 whole entry): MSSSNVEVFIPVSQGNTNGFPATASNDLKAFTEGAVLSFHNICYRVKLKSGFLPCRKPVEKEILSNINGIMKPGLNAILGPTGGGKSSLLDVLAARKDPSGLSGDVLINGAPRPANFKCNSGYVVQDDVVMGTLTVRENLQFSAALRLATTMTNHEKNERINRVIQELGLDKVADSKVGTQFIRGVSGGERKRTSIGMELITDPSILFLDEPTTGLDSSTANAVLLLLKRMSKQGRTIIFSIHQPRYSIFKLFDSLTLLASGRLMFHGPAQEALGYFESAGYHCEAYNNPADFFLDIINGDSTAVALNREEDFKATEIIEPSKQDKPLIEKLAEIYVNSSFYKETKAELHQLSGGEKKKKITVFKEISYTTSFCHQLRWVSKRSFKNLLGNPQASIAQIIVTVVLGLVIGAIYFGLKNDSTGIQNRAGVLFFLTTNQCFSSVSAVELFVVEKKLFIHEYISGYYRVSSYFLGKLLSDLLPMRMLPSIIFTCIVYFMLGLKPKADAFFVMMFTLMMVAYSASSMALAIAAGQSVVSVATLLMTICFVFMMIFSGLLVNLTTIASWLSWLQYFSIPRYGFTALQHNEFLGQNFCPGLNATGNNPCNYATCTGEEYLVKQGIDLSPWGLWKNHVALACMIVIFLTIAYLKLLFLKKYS
Protocol Details: MDCKII-BCRP bidirectional transport assay
Type: in vitro ADME
Description: Exemplary compounds were tested for cell permeability in Caco-2, MDCKII-MDR1 and MDCKII-BCRP cell lines with efflux transporter engagement inferred from the efflux ratios determined. Procedures and results are described below. […] This feature of certain compounds is in part due to efflux transporter engagement. […] The transport assay can be performed between days 12 to day 15 using ready to use PreadyPort™ BCRP-MDCKII monolayer in 96 well plate. […]
MDCK-BCRP: Efflux Ratio listing for selected compounds.
Just the number, please.

For orientation, consider the following solved cases.
{"Compound": "Cc1ccc(-c2noc(C3(C)CC(F)C3)n2)cc1NC(=O)c1cnc2ccccn12 (stereo not drawn)", "Reported Measurement": 1.56}
{"Compound": "COc1ccn2c(C(=O)Nc3cc(-c4noc(C5CC(F)(F)C5)n4)ccc3C)cnc2c1", "Reported Measurement": 1.44}
{"Compound": "Cc1ccc(-c2noc(C3CCC(F)C3)n2)cc1NC(=O)c1cnc2ccccn12 (racemic) [Compound I-318]", "Reported Measurement": 0.93}
{"Compound": "Cc1ccc(-c2noc(CO)n2)cc1NC(=O)c1cnc2ccccn12", "Reported Measurement": 4.71}

Challenge: Quick check: MDCK-BCRP: Efflux Ratio of `COC(=O)N1CC(c2nc(-c3ccc(Cl)c(NC(=O)c4cnc5ccccn45)c3)no2)C1` ?
Response given: 1.75

Challenge: Quick check: MDCK-BCRP: Efflux Ratio of Cc1ccc(-c2noc(C(C)O)n2)cc1NC(=O)c1cnc2ccccn12 (racemic) ?
Response given: 9.18

Challenge: Quick check: MDCK-BCRP: Efflux Ratio of `Cc1ccc(-c2noc([C@H]3C[C@@H]3F)n2)cc1NC(=O)c1cnc2ccc(N3CCCC3)cn12` ?
Response given: 0.54

Challenge: Quick check: MDCK-BCRP: Efflux Ratio of `Cc1ccc(-c2noc([C@H]3C[C@@H]3F)n2)cc1NC(=O)c1cnc2cc(OC(F)(F)F)ccn12` ?
Response given: 0.71

Challenge: Quick check: MDCK-BCRP: Efflux Ratio of CCOC1CC(c2nc(-c3ccc(C)c(NC(=O)c4cnc5ccccn45)c3)no2)C1 (stereo not drawn) [Compound I-309] ?
Response given: 1.07

Challenge: Quick check: MDCK-BCRP: Efflux Ratio of COC(=O)N1CC(c2nc(-c3ccc(C)c(NC(=O)c4cnc5cc(O[C@@H](C)CO)ccn45)c3)no2)C1 (single isomer, unassigned) ?
Response given: 28.1

Challenge: Quick check: MDCK-BCRP: Efflux Ratio of `COC(=O)Cc1nc(-c2ccc(C)c(NC(=O)c3cnc4ccccn34)c2)no1` ?
Response given: 3.4

* * *

Protocol Details: Three time point assay for plasma, brain and testes distribution after oral dosing
Assay type: in vivo, rat
Reported Conditions: rat, oral dosing, time point 2 h
Classification by Plasma concentration follows these ranges: lower (below 500 ng/mL), middle (500 ng/mL to below 2000 ng/mL), upper (2000 ng/mL or more)

{"Molecule": "COc1ccn2c(C(=O)Nc3cc(-c4noc(CC(O)C(F)F)n4)ccc3C)cnc2c1 (single isomer, unassigned) [Compound I-40]", "Label": "middle"}

Challenge: Class label required: COC(=O)N1CC(c2nc(-c3ccc(C(F)F)c(NC(=O)c4cnc5ccccn45)c3)no2)C1 [Compound I-225]
Response given: upper

Challenge: Class label required: COC(=O)N1CC(c2nc(-c3ccc(Cl)c(NC(=O)c4cnc5ccccn45)c3)no2)C1 [Compound I-339]
Response given: middle

Challenge: Class label required: Cc1ccc(-c2noc(C(C)NS(C)(=O)=O)n2)cc1NC(=O)c1cnc2ccccn12 (single isomer, unassigned) [Compound I-238]
Response given: middle

Challenge: Class label required: Cc1ccc(-c2noc(C3CCS(=O)(=O)N3)n2)cc1NC(=O)c1cnc2ccccn12 (racemic) [Compound I-330]
Response given: lower

Challenge: Class label required: Cc1ccc(-c2noc(C3(O)CC(F)(F)C3)n2)cc1NC(=O)c1cnc2ccccn12 [Compound I-380]
Response given: lower

Challenge: Class label required: Cc1nc(-c2ccc(C)c(NC(=O)c3cnc4ccccn34)c2)no1 [Compound I-360]
Response given: upper

Challenge: Class label required: Cc1ccc(-c2noc([C@H]3C[C@@H]3F)n2)cc1NC(=O)c1cnc2cc(N3CCC3)ccn12 [Compound I-295]
Response given: upper

Challenge: Class label required: Cc1ccc(-c2noc(C3(C)CC(F)(F)CN3)n2)cc1NC(=O)c1cnc2ccccn12 (racemic) [Compound I-328]
Response given: lower

Challenge: Class label required: Cc1cc(C)cc(Nc2ccc3ncc(C(=O)Nc4cc(-c5noc([C@H]6C[C@@H]6F)n5)ccc4C)n3c2)c1 [Compound I-299]
Response given: lower

Challenge: Class label required: Cc1ccc(-c2noc([C@@H](C)O)n2)cc1NC(=O)c1cnc2ccccn12 [Compound I-270]
Response given: lower

Challenge: Class label required: Cc1ccc(-c2noc(C3CC(OCCF)C3)n2)cc1NC(=O)c1cnc2ccccn12 (stereo not shown) [Compound I-369]
Response given: middle

Challenge: Class label required: O=C(Nc1cc(-c2noc([C@H]3C[C@@H]3F)n2)ccc1Br)c1cnc2ccccn12 [Compound I-340]
Response given: upper
